biological target: full-length human Aurora B/INCENP complex (Homo sapiens, UniProt Q96GD4); construct: the full-length human Aurora B (N-terminal GST fusion); GST (N); assay: Aurora B phosphocellulose filter binding kinase activity assay; conditions: 1.5 nM Aurora B/INCENP complex, 10 μM ATP, 50 μM Kemptide, 45 min; read-out: Aur-B IC50
Sequence (Q96GD4 whole entry, the tested form may be a part): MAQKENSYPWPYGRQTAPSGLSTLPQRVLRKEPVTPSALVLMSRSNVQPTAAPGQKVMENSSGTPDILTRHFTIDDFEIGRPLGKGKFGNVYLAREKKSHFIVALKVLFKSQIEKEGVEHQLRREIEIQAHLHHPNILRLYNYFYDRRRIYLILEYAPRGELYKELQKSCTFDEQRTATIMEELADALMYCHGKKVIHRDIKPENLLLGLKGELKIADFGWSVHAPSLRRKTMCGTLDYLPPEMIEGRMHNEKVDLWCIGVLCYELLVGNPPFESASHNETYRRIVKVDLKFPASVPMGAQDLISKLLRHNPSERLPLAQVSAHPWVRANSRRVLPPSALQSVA
Sequence (Q9NQS7 803-918 partner limits assumed): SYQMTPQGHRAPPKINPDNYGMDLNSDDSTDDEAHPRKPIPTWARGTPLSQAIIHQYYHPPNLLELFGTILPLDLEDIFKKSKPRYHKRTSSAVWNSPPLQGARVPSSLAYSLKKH
The following molecules are listed with their measured IC50 values.
Test readout: IC50 (nM)

| Given smiles | Target of assay | Value observed |
| --- | --- | --- |
| O=C(Cc1cc(Nc2ncnc3ccccc23)n[nH]1)Nc1cccc(F)c1 | full-length human Aurora B/INCENP complex (Homo sapiens, UniProt Q96GD4) | 14.9 |
| O=C(Cc1cc(Nc2ncnc3cc(-c4ccc(C(=O)N5CCN(CC6CC6)CC5)cc4)ccc23)n[nH]1)Nc1cccc(F)c1 | full-length human Aurora B/INCENP complex (Homo sapiens, UniProt Q96GD4) | 1.88 |
| O=C(Cc1cc(Nc2ncnc3cc(-c4ccc(C(=O)N5CCN(CCF)CC5)cc4)ccc23)n[nH]1)Nc1cccc(F)c1 | full-length human Aurora B/INCENP complex (Homo sapiens, UniProt Q96GD4) | 0.74 |
| O=C(Cc1cc(Nc2ncnc3cc(-c4ccc(S(=O)(=O)N5CC[C@H](F)C5)cc4)ccc23)n[nH]1)Nc1cccc(F)c1 | full-length human Aurora B/INCENP complex (Homo sapiens, UniProt Q96GD4) | 0.56 |
| O=C(Cc1cc(Nc2ncnc3cc(-c4ccc(S(=O)(=O)N5CCCC5)cc4)ccc23)n[nH]1)Nc1cccc(F)c1 | full-length human Aurora B/INCENP complex (Homo sapiens, UniProt Q96GD4) | 0.47 |
| O=C(Cc1cc(Nc2ncnc3cc(-c4ccc(C(=O)N5CCN(CCO)CC5)cc4)ccc23)n[nH]1)Nc1cccc(F)c1 | full-length human Aurora B/INCENP complex (Homo sapiens, UniProt Q96GD4) | 0.48 |
| O=C(Cc1cc(Nc2ncnc3cc(-c4ccc(C(=O)N5CCNCC5)cc4)ccc23)n[nH]1)Nc1cccc(F)c1 | full-length human Aurora B/INCENP complex (Homo sapiens, UniProt Q96GD4) | 0.71 |

====

pIC50: −log10 of the molar value.
Observed pIC50 for full-length human Aurora A (Homo sapiens), reported per entry below.

| Given smiles | pIC50 |
| --- | --- |
| O=C(Cc1cc(Nc2ncnc3cc(-c4ccc(S(=O)(=O)N5CCCC5)cc4)ccc23)n[nH]1)Nc1cccc(F)c1 | 8.22 |
| C[C@@H]1CN(C(=O)c2ccc(-c3ccc4c(Nc5cc(CC(=O)Nc6cccc(F)c6)[nH]n5)ncnc4c3)cc2)C[C@H](C)N1 | 8.19 |
| O=C(Cc1cc(Nc2ncnc3cc(-c4ccc(C(=O)N5CCN(CC6CC6)CC5)cc4)ccc23)n[nH]1)Nc1cccc(F)c1 | 8.02 |
| O=C(Cc1cc(Nc2ncnc3cc(-c4ccc(C(=O)N5CCN(C6CC6)CC5)cc4)ccc23)n[nH]1)Nc1cccc(F)c1 | 8.34 |
| O=C(Cc1cc(Nc2ncnc3cc(-c4ccc(C(=O)N5CCNCC5)cc4)ccc23)n[nH]1)Nc1cccc(F)c1 | 8.42 |
| CN1CCN(S(=O)(=O)c2ccc(-c3ccc4c(Nc5cc(CC(=O)Nc6cccc(F)c6)[nH]n5)ncnc4c3)cc2)CC1 | 7.86 |
| O=C(Cc1cc(Nc2ncnc3cc(-c4ccc(C(=O)N5CCN(CCO)CC5)cc4)ccc23)n[nH]1)Nc1cccc(F)c1 | 8.71 |

====

system: MCF-7; experiment: CellTiter-Glo cell viability assay, MCF-7; type: cell-based; details: Homo sapiens, MCF7, 240 h, read-out: MCF-7 IC50
pIC50: −log10 of the molar value.
The following molecules are listed with their measured pIC50 values.
Test readout: pIC50

| Molecule | Value observed |
| --- | --- |
| CCN(CCO)CCCOc1ccc2c(Nc3cc(CC(=O)Nc4cccc(F)c4)[nH]n3)ncnc2c1 [AZD1152HQPA, reference compound] | 7.22 |
| Cc1cc(Nc2cc(N3CCN(C)CC3)nc(Sc3ccc(NC(=O)C4CC4)cc3)n2)n[nH]1 [VX-680, reference compound] | 7.51 |

====

target: full-length human Aurora B/INCENP complex (Homo sapiens, UniProt Q96GD4); construct: the full-length human Aurora B (N-terminal GST fusion); GST (N); test: Aurora B phosphocellulose filter binding kinase activity assay; conditions: 1.5 nM Aurora B/INCENP complex, 10 μM ATP, 50 μM Kemptide, 45 min; read-out: Aur-B IC50
Strictly below 0.8 nM in IC50: Y. Otherwise: N.

| Given smiles | Group label |
| --- | --- |
| CN1CCN(S(=O)(=O)c2ccc(-c3ccc4c(Nc5cc(CC(=O)Nc6cccc(F)c6)[nH]n5)ncnc4c3)cc2)CC1 | N |
| O=C(Cc1cc(Nc2ncnc3cc(-c4ccc(C(=O)N5CCN(CCOP(=O)(O)O)CC5)cc4)ccc23)n[nH]1)Nc1cccc(F)c1 | Y |
| O=C(Cc1cc(Nc2ncnc3cc(-c4ccc(C(=O)N5CCN(CCO)CC5)cc4)ccc23)n[nH]1)Nc1cc(F)cc(F)c1 | N |
| CN1CCN(C(=O)c2ccc(-c3ccc4c(Nc5cc(CC(=O)Nc6cccc(F)c6)[nH]n5)ncnc4c3)cc2)CC1 | N |
| O=C(Cc1cc(Nc2ncnc3cc(-c4ccc(S(=O)(=O)N5CC[C@@H](F)C5)cc4)ccc23)n[nH]1)Nc1cccc(F)c1 | Y |

====

system: Colo205; experiment: CellTiter-Glo cell viability assay, Colo205; assay type: cell-based; details: Homo sapiens, COLO 205; Colorectal cancer; 72 hrs; 50% growth inhibition relative to control; read-out: Colo205 IC50
The following molecules are listed with their measured IC50 values.

| Molecule | Units | IC50 |
| --- | --- | --- |
| O=C(Cc1cc(Nc2ncnc3cc(-c4ccc(S(=O)(=O)N5CCCC5)cc4)ccc23)n[nH]1)Nc1cccc(F)c1 [Compound 3] | nM | 2.26 |
| O=C(Cc1cc(Nc2ncnc3cc(-c4ccc(C(=O)N5CCN(CC6CC6)CC5)cc4)ccc23)n[nH]1)Nc1cccc(F)c1 [Compound 9] | nM | 9.88 |
| O=C(Cc1cc(Nc2ncnc3cc(-c4ccc(C(=O)N5CCN(CCOP(=O)(O)O)CC5)cc4)ccc23)n[nH]1)Nc1cccc(F)c1 [Compound 13] | nM | 9.39 |
| O=C(Cc1cc(Nc2ncnc3cc(-c4ccc(C(=O)N5CCN(CCO)CC5)cc4)ccc23)n[nH]1)Nc1cc(F)cc(F)c1 [Compound 14] | nM | 8.11 |
| O=C(Cc1cc(Nc2ncnc3cc(-c4ccc(S(=O)(=O)N5CC[C@@H](F)C5)cc4)ccc23)n[nH]1)Nc1cccc(F)c1 [Compound 6] | nM | 3.9 |
| CN1CCN(C(=O)c2ccc(-c3ccc4c(Nc5cc(CC(=O)Nc6cccc(F)c6)[nH]n5)ncnc4c3)cc2)CC1 [Compound 2] | nM | 3.98 |
| C[C@@H]1CN(C(=O)c2ccc(-c3ccc4c(Nc5cc(CC(=O)Nc6cccc(F)c6)[nH]n5)ncnc4c3)cc2)C[C@H](C)N1 [Compound 11] | nM | 2.9 |

====

The following molecules are listed with their measured IC50 values.
target: full-length human Aurora B/INCENP complex (Homo sapiens, UniProt Q96GD4); construct: the full-length human Aurora B (N-terminal GST fusion); GST (N); test: Aurora B phosphocellulose filter binding kinase activity assay; details: 1.5 nM Aurora B/INCENP complex, 10 μM ATP, 50 μM Kemptide, 45 min; read-out: Aur-B IC50
Test readout: IC50 (nM)

| Molecule | Target of assay | Units | Value observed |
| --- | --- | --- | --- |
| O=C(Cc1cc(Nc2ncnc3cc(-c4ccc(C(=O)N5CCN(CCO)CC5)cc4)ccc23)n[nH]1)Nc1cccc(F)c1F [Compound 15] | full-length human Aurora B/INCENP complex (Homo sapiens, UniProt Q96GD4) | nM | 0.63 |
| O=C(Cc1cc(Nc2ncnc3cc(-c4ccc(C(=O)N5CCN(C6CC6)CC5)cc4)ccc23)n[nH]1)Nc1cccc(F)c1 [Compound 10] | full-length human Aurora B/INCENP complex (Homo sapiens, UniProt Q96GD4) | nM | 1.23 |
| C[C@@H]1CN(C(=O)c2ccc(-c3ccc4c(Nc5cc(CC(=O)Nc6cccc(F)c6)[nH]n5)ncnc4c3)cc2)C[C@H](C)N1 [Compound 11] | full-length human Aurora B/INCENP complex (Homo sapiens, UniProt Q96GD4) | nM | 1.37 |

Origin of the recorded values: patent US20110136766A1
